Just for reference, patent US4216226A is where these values come from.

Test: in vitro
Settings: rainbow trout, rtg-2 cells
Where a name gives a salt, the structure may show the parent alone.
recorded_metric: log10 of MCC (log10 of the value in µg/mL)

O=C1O[C@H]([C@@H](O)CO)C(O)=C1O [L-Ascorbic acid, reference compound]	3.30
N[C@@H](Cc1ccc(O)cn1)C(=O)O	2.70
NC[C@H](N)C(=O)O [L-Aminomethyl glycine hydrochloride]	3.60
NC(Cc1ccc(F)cc1)C(=O)O (racemic) [DL-p-fluoro-phenyl alanine, reference compound]	2.40
NC(CCP(=O)(O)O)C(=O)O (racemic) [DL-phosphonoethyl glycine]	3.60
NC(=O)NCC(N)C(=O)O (racemic) [DL-Ureidomethyl glycine]	3.30
NC(=O)NC[C@H](N)C(=O)O [L-Ureidomethyl glycine hydrochloride]	3.60
N[C@@H](CNC(=O)NO)C(=O)O [L-Hydroxyureidomethyl glycine]	3.60
CP(=O)(O)CC[C@H](N)C(=O)O [sodium salt]	3.60
Cl.NC12CC3CC(CC(C3)C1)C2 [1-Adamantanamine hydrochloride, reference compound]	1.49
NC(Cc1ccc(O)cn1)C(=O)O (racemic) [DL-p-Hydroxypyridylmethyl glycine]	3.00
O=C(O)C1NC2CC21 [L-3,5-Cyclo-2-pyrrolidylcarboxylic acid]	3.00
NCC(N)C(=O)O (racemic) [DL-Aminomethyl glycine hydrochloride]	3.48
COC(=O)[C@@H](N)Cc1ccc(O)cn1 [hydrochloride]	3.18
